# study.target: SV2A in native membrane (Rattus norvegicus, UniProt Q02563)
# Sequence (Q02563 whole entry): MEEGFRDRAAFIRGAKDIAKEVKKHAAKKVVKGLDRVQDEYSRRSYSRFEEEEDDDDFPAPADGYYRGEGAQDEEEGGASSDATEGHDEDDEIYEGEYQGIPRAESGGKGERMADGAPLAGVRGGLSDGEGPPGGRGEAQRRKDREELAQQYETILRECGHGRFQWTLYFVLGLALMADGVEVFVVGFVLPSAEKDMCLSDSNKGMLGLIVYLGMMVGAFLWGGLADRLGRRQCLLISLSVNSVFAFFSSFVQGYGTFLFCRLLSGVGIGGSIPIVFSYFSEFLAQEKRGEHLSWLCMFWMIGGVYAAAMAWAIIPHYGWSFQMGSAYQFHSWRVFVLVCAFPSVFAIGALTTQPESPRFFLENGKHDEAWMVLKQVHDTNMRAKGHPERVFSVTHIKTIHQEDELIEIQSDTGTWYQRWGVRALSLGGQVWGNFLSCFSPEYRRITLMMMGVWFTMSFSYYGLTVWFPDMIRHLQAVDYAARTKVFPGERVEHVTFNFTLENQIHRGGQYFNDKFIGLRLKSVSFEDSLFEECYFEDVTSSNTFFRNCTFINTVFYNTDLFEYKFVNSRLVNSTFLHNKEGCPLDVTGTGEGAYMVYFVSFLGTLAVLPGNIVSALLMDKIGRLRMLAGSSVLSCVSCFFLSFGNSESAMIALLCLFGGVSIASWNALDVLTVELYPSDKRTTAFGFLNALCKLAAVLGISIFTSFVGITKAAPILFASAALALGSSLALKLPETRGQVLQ
measured.property: Kd (nM)
Give bare numbers, in nM.

Q) I have this compound here, CC[C@@H](C(N)=O)N1CC(c2cccc(N=[N+]=[N-])c2)CC1=O (stereo partly shown) , and I need its recorded Kd.
A) 30

Where these numbers come from: patent US20070135514A1
